All values here come from patent US8778929B2.

Target Desc: B-Raf (V600E)-kinase (Homo sapiens, UniProt P15056, V600E)
Sequence (P15056 whole entry V600E): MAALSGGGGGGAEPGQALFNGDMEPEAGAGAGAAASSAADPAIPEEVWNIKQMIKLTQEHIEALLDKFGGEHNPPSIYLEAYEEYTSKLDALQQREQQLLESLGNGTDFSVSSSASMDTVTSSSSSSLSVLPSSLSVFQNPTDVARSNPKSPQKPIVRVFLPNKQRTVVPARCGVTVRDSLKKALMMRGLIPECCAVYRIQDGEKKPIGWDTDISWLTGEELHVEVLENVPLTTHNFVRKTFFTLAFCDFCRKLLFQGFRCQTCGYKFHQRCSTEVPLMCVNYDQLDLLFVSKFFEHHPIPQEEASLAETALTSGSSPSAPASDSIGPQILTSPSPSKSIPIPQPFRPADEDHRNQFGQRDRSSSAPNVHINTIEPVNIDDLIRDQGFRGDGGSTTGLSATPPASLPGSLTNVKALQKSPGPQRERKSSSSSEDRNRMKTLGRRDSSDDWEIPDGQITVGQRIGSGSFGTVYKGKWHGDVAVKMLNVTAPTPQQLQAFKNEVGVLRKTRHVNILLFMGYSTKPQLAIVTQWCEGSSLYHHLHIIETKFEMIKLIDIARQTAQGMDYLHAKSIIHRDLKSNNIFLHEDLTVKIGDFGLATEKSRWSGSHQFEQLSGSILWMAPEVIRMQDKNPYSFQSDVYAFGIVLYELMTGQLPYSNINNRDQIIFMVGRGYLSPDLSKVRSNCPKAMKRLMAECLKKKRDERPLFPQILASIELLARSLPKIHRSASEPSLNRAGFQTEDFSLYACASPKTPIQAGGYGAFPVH
Protocol Details: Kinase test B-Raf (V600E)
Format: biochemical
Details: compound concentration 2 μM; 100% = no inhibition, 0% = total inhibition; read-out: % CTL (residual activity of the enzyme relative to DMSO control)
Property: remaining activity at 2 µM (%)

>>> measured("COc1cncc(-c2cn(-c3cc(C(=O)Nc4cc(N5CCN(C)CC5)c(F)c(C(F)(F)F)c4)cnc3C)nn2)c1")
2.2
>>> measured("Cc1ncc(C(=O)Nc2cc(N3CCN(C)CC3)cc(C(F)(F)F)c2)cc1-n1cc(-c2cncnc2)nn1")
2.4
>>> measured("Cc1ncc(NC(=O)c2cc(C(F)(F)F)ccn2)cc1-n1cc(-c2cncc(N3CCN(C(C)(C)C)CC3)c2)nn1")
2.9
>>> measured("Cc1ncc(C(=O)Nc2cc(OC(F)(F)F)cc(N3CCN(C)CC3)c2)cc1-n1cc(-c2cncnc2)nn1")
1.9
>>> measured("Cc1ncc(C(=O)Nc2cc(C(C)(C)C)ncn2)cc1-n1cc(-c2cncc(N3CCN(C(C)C)CC3)c2)nn1")
2.6
>>> measured("COc1ccc(NC(=O)c2cnc(C)c(-n3cc(-c4cnn(C)c4C)nn3)c2)cc1C(F)(F)F")
2
>>> measured("COCCCN1CCN(c2cncc(-c3cn(-c4cc(C(=O)Nc5cc(C(C)(C)C)on5)cnc4C)nn3)c2)CC1")
8.4

###

Target Desc: B-Raf (V600E)-kinase (Homo sapiens, UniProt P15056, V600E)
Protocol Details: Kinase test B-Raf (V600E)
Assay type: biochemical
Details: compound concentration 2 μM; 100% = no inhibition, 0% = total inhibition; read-out: % CTL (residual activity of the enzyme relative to DMSO control)
Here, each record is paired with measured remaining activity at 2 µM data.
Property: remaining activity at 2 µM

>>> measured("Cc1ncc(C(=O)Nc2cc(CN(C)C)c(C)c(C(F)(F)F)c2)cc1-n1cc(-c2cnn(C)c2C)nn1 [Example I-93]")
"3.5%"
>>> measured("Cc1ncc(C(=O)Nc2cc(C(F)(F)F)cc(Br)c2C)cc1-n1cc(-c2cnn(C)c2C)nn1 [Example I-100]")
"3%"
>>> measured("COCCN(C)Cc1cc(NC(=O)c2cnc(C)c(-n3cc(-c4cnn(C)c4C)nn3)c2)cc(C(F)(F)F)c1C [Example I-94]")
"3.5%"
>>> measured("Cc1ncc(C(=O)Nc2cc(C(C)(C)C)on2)cc1-n1cc(-c2cncc(N(C)C3CCN(C(C)C)CC3)c2)nn1 [Example I-200]")
"1%"
>>> measured("CCN1CCN(Cc2cncc(-c3cn(-c4cc(C(=O)Nc5cc(C(C)(C)C)on5)cnc4C)nn3)c2)CC1 [Example I-188]")
"1.5%"
>>> measured("CCC(C)N1CC=C(c2cc(NC(=O)c3cnc(C)c(-n4cc(-c5cnn(C)c5C)nn4)c3)cc(C(F)(F)F)c2C)CC1 (centres unmarked) [Example I-99]")
"1.9%"
>>> measured("Cc1ncc(C(=O)Nc2cc(C(F)(F)F)ccn2)cc1-n1cc(-c2cncnc2)nn1 [Example I-23]")
"5.9%"
>>> measured("Cc1ncc(C(=O)Nc2cc(C(C)(C)C)on2)cc1-n1cc(-c2cncc(N3CCCOCC3)c2)nn1 [Example I-36]")
"1.8%"
>>> measured("Cc1ncc(C(=O)Nc2cc(C(C)(C)C)on2)cc1-n1cc(-c2cncc(N3CCN(C)CC3)c2)nn1 [Example I-39]")
"1.5%"
>>> measured("CC(=O)Nc1ncc(-c2cn(-c3cc(NC(=O)c4cc(OC(F)(F)F)cc(N5CCN(C)CC5)c4)cnc3C)nn2)s1 [XII-19]")
"6.5%"
>>> measured("Cc1ncc(C(=O)Nc2nnc(C(C)(C)C)s2)cc1-n1cc(-c2cncc(N3CCN(C(C)C)CC3)c2)nn1 [Example I-153]")
"1.8%"
>>> measured("Cc1ncc(NC(=O)c2cc(OC(F)(F)F)cc(N3CCOCC3)c2)cc1-n1cc(-c2cnn(C)c2C)nn1 [XII-25]")
"3.9%"
>>> measured("CCN1CCN(c2cc(NC(=O)c3cnc(C)c(-n4cc(-c5cncs5)nn4)c3)cc(C(F)(F)F)c2C)CC1 [Example I-43]")
"1.1%"
>>> measured("COc1ccc(C(=O)Nc2cnc(C)c(-n3cc(-c4cncc(N5CCN(C(C)(C)C)CC5)c4)nn3)c2)cc1C(F)(F)F [XII-45]")
"2.9%"
